- target: mouse TMEM16A mutant I512A (Mus musculus, UniProt Q8BHY3, I512A)
- Construct: expressed in transfected cells; host or cells: HEK293T
- measurementNotes: Inside-out patch recording of 1PBC block, mutant I512A
- Format: cell-based
- conditionInfo: 0 mV; 2 µM Ca2+
readoutKind: IC50

1. N#Cc1c(C(F)(F)F)cc(O)n2c1nc1ccccc12 :: 30.7 µM

###

- target: mouse TMEM16A mutant V543A (Mus musculus, UniProt Q8BHY3, V543A)
- Construct: expressed in transfected cells; host or cells: HEK293T
- measurementNotes: Inside-out patch recording of 1PBC block, mutant V543A
- Assay type: cell-based
- conditionInfo: 140 mV; 15 µM Ca2+
readoutKind: IC50 (µM)

1. N#Cc1c(C(F)(F)F)cc(O)n2c1nc1ccccc12 :: 9.55

###

- target: mouse TMEM16A mutant K603Q (Mus musculus, UniProt Q8BHY3, K603Q)
- Construct: expressed in transfected cells; host or cells: HEK293T
- Sequence (Q8BHY3 1-960 K603Q): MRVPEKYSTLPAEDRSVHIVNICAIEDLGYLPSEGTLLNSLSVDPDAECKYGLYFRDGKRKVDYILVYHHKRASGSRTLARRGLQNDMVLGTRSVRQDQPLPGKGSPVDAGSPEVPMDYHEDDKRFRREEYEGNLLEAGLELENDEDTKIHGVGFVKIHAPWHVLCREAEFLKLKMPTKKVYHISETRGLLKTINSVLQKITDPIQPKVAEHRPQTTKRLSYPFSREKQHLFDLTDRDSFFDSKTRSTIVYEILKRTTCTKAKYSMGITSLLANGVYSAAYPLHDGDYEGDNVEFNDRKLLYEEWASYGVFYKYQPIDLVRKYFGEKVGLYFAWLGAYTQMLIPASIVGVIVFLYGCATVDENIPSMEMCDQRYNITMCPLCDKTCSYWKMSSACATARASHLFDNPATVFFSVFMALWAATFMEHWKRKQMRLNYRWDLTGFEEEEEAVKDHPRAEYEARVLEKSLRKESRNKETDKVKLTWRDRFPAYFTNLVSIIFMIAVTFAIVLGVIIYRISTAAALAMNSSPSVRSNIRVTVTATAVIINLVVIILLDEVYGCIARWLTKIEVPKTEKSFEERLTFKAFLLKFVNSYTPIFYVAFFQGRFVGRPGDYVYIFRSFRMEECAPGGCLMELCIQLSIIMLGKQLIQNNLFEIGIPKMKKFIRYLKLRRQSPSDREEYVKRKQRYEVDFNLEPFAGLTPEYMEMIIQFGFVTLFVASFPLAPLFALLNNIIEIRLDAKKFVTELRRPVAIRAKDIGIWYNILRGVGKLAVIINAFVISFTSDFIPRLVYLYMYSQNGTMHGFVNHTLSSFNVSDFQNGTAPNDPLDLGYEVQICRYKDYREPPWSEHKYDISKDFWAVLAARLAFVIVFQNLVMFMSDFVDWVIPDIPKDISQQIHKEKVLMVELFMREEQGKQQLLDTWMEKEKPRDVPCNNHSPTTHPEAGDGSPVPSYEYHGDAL
- measurementNotes: Inside-out patch recording of 1PBC block, mutant K603Q
- Type: cell-based
- conditionInfo: K603Q; V 80 mV
readoutKind: IC50 (µM)

1. N#Cc1c(C(F)(F)F)cc(O)n2c1nc1ccccc12 :: 192

###

- target: mouse TMEM16A mutant R535A (Mus musculus, UniProt Q8BHY3, R535A)
- Construct: expressed in transfected cells; host or cells: HEK293T
- Sequence (Q8BHY3 1-960 R535A): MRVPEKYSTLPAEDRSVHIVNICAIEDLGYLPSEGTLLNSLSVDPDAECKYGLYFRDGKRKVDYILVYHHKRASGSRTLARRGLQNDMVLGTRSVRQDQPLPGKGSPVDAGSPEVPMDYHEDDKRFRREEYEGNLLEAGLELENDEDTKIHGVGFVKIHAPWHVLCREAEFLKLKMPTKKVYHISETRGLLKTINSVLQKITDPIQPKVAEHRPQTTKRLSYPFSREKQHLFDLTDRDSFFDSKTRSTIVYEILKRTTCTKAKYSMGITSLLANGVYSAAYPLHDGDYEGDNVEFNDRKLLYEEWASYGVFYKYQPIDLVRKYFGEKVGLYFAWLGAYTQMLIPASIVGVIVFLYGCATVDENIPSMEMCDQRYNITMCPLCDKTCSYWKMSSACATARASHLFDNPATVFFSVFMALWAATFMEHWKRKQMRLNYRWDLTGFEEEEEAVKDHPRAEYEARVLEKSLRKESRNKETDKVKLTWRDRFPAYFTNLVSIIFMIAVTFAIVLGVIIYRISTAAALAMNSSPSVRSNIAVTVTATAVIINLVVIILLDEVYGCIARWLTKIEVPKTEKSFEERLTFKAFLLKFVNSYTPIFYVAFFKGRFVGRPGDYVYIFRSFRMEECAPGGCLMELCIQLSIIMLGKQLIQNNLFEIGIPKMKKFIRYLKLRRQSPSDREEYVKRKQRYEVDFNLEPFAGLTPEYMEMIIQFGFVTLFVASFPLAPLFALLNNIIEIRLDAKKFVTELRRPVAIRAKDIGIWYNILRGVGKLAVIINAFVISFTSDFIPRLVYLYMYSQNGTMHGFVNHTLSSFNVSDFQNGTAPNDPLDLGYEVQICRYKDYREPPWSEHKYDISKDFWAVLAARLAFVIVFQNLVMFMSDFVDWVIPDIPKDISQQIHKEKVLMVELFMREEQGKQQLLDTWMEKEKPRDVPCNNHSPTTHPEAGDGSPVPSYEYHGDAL
- measurementNotes: Inside-out patch recording of 1PBC block, mutant R535A
- Format: cell-based
- conditionInfo: -40 mV; 2 µM Ca2+
readoutKind: IC50

1) N#Cc1c(C(F)(F)F)cc(O)n2c1nc1ccccc12 :: 17.7 µM
